experimentalSystem: T1, human CD131 (human, UniProt P32927 17-897)
T1 sequence: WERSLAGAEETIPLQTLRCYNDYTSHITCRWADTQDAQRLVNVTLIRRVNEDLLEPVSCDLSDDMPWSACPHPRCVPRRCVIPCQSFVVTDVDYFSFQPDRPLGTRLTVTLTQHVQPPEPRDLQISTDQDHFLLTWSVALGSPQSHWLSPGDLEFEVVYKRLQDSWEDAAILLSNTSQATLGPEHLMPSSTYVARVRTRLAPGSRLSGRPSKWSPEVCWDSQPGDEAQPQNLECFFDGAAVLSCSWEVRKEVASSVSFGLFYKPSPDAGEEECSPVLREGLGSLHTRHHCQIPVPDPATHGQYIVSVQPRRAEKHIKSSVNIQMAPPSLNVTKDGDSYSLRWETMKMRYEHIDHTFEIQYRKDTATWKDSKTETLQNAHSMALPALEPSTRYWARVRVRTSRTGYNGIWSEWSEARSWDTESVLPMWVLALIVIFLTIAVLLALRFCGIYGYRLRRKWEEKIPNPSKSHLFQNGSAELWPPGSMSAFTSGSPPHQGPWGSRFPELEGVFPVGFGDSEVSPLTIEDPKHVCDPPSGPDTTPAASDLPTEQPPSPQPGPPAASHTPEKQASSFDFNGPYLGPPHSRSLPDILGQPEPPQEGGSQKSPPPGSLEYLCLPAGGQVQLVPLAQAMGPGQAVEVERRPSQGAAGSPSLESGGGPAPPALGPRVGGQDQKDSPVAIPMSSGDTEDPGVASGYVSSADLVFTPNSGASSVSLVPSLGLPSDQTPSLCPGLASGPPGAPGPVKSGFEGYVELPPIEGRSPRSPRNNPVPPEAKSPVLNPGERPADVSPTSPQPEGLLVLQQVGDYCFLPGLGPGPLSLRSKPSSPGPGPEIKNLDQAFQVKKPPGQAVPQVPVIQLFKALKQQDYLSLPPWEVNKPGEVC
experimentDescription: cell-based or functional assay
I'd be grateful if you could share measured IC50 GM-CSF, TF-1 proliferation for these entries.
Numbers only, in nM.

9A2-VR23 (antibody, V domains shown) VH: EVQLLESGGGLVQPGGSLRLSCAASGFTFEWYRVHWVRQAPGKGLEWVSSIRSSGGFTYYADSVKGRFTISRDNSKNTLYLQMNSLRAEDTAVYYCARFYDSFFDIWGQGTMVTVSS VL: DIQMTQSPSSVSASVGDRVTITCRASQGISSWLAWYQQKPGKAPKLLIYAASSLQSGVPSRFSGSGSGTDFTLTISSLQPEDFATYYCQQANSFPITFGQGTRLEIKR: 60
9A2-VR21 (antibody, V domains shown) VH: EVQLLESGGGLVQPGGSLRLSCAASGFTFMHYRVHWVRQAPGKGLEWVSSIRSSGGFTYYADSVKGRFTISRDNSKNTLYLQMNSLRAEDTAVYYCARFYDSFFDIWGQGTMVTVSS VL: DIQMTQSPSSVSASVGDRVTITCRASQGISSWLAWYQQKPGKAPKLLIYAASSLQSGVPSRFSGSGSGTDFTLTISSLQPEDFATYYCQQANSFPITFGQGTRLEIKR: 99.8
9A2-VR22 (antibody, V domains shown) VH: EVQLLESGGGLVQPGGSLRLSCAASGFTFQWYRVHWVRQAPGKGLEWVSSIRSSGGFTYYADSVKGRFTISRDNSKNTLYLQMNSLRAEDTAVYYCARFYDSFFDIWGQGTMVTVSS VL: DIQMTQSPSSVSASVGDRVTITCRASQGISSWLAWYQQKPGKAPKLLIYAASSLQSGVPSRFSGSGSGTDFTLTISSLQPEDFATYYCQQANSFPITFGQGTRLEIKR: 39.9
9A2-VR20 (antibody, V domains shown) VH: EVQLLESGGGLVQPGGSLRLSCAASGFTFNHYRVHWVRQAPGKGLEWVSSIRSSGGFTYYADSVKGRFTISRDNSKNTLYLQMNSLRAEDTAVYYCARFYDSFFDIWGQGTMVTVSS VL: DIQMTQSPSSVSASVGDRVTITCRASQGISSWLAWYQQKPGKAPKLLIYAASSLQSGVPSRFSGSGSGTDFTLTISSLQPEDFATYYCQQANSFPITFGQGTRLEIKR: 79.3

Let us move to another entry and its IC50 GM-CSF, TF-1 proliferation.
**Query** Report IC50 GM-CSF, TF-1 proliferation for 9A2-VR42 (antibody, V domains shown) VH: EVQLLESGGGLVQPGGSLRLSCAASGFTFSHYHMLWVRQAPGKGLEWVSSIGGDIRQTYYADSVKGRFTISRDNSKNTLYLQMNSLRAEDTAVYYCARFYDSFFDIWGQGTMVTVSS VL: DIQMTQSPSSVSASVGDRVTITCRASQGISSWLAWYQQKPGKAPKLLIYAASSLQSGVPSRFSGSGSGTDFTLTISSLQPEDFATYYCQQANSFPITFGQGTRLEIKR please.
**Result** 54.7
